In this section, each of the compounds is paired with its reported IC50.
system: West Nile virus; test: Inhibitory activity determined against west nile virus (WNV) NTPase/helicase (NTPase/helicase Non structural protein 3) using DNA as substrate; format: functional
metric_name: IC50

CCCNc1nc(=O)c2c(ncn2C2O[C@H](CO)[C@@H](O)C2O)c(=O)[nH]1 (single isomer, unassigned) ... > 300 µg/mL
O=c1nc(NCCc2ccccc2)[nH]c(=O)c2c1ncn2C1O[C@H](CO)[C@@H](O)C1O (single isomer, unassigned) ... > 500 µg/mL
CCCCCCNc1nc(=O)c2c(ncn2C2O[C@H](CO)[C@@H](O)C2O)c(=O)[nH]1 (single isomer, unassigned) ... > 300 µg/mL
O=c1nc(NCCCc2ccccc2)[nH]c(=O)c2c1ncn2C1O[C@H](CO)[C@@H](O)C1O (single isomer, unassigned) ... > 500 µg/mL
